Molecular target: LmjIPCS (inositol phosphorylceramide synthase from L. major) (Leishmania major)
Sequence (E9AFX2 whole entry): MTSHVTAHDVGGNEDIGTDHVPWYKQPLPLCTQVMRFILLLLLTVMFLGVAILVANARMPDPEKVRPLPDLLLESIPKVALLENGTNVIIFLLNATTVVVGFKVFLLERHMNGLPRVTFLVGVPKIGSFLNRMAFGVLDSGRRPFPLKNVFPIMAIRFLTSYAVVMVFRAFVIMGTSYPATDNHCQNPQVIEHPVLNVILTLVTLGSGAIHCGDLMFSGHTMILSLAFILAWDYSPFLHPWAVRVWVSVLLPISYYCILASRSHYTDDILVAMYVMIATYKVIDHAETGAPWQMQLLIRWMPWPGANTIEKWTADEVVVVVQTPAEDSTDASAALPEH
Assay: biochemical
Type: biochemical
Conditions: read-out: 20mM inhibition LmjIPCS
Counter-ions that a name gives are not always drawn.
attribute.measured: inhibition at 20000 µM (%)
// note: answer is a bare numeric in %

Name the reported inhibition at 20000 µM value associated with the compound CC(=O)O[C@H](CC(=O)[O-])C[N+](C)(C)C [ACETYLCARNITINE]
-17

Name the reported inhibition at 20000 µM value associated with the compound O=C1NC(=O)C(=O)C(=O)N1 [ALLOXAN]
-1.11

Name the reported inhibition at 20000 µM value associated with the compound NCc1ccc(S(N)(=O)=O)cc1 [MAFENIDE]
11

Name the reported inhibition at 20000 µM value associated with the compound Nc1nc(N)c2nc(CNc3ccc(C(=O)N[C@@H](CCC(=O)O)C(=O)O)cc3)cnc2n1 [AMINOPTERIN]
0.247

Name the reported inhibition at 20000 µM value associated with the compound C[n+]1ccccc1/C=N/O [PRALIDOXIME MESYLATE]
9

Reference for the values: paper PMC7802075
